Data provenance: PubChem BioAssay (NCI)

system: NCI/ADR-RES ovarian; test: NCI tumour cell line growth inhibition, 48 h
quantity measured: TGI

[Q] Return reported TGI; argument: Oc1ccc(/C=C/c2cc(O)cc3c2C(c2cc(O)cc(O)c2)C(c2ccc(O)c(O)c2)O3)cc1 (stereo not drawn)
[A] > 100 µM

[Q] Return reported TGI; argument: "O=C(NNc1cnccn1)c1nc2cc(F)ccc2n2cccc12"
[A] > 44.8 µM

[Q] Return reported TGI; argument: "CCc1nc(Cl)c(Cl)c(Cl)n1"
[A] > 100 µM

[Q] Return reported TGI; argument: "O=c1cc(NNc2cccc(Cl)c2)[nH]c(=O)[nH]1"
[A] > 100 µM

[Q] Return reported TGI; argument: "COc1cc2c(cc1O)NC(=O)[C@@H]1CCCN1C2=O"
[A] > 100 µM

[Q] Return reported TGI; argument: CNC(C)C(O)c1ccc2oc3cc(=O)c4ccccc4c-3nc2c1 (stereo not drawn)
[A] > 100 µM

[Q] Return reported TGI; argument: "N#CC(C#N)=C1CCCOc2c1ccc1ccccc21"
[A] > 100 µM

[Q] Return reported TGI; argument: COc1cc(/C=C/C(=O)C(C(=O)/C=C/c2ccc(OC(=O)CCNC34CC5CC(CC(C5)C3)C4)c(OC)c2)C(=O)CCNC23CC4CC(CC(C4)C2)C3)ccc1OC(=O)CCNC12CC3CC(CC(C3)C1)C2 (stereo not drawn)
[A] 90.2 µM

[Q] Return reported TGI; argument: CC(=O)NC1C(Sc2ncn(C3OC(CO)C(O)C(O)C3NC(C)=O)n2)OC(CO)C(O)C1O (stereo not drawn)
[A] > 100 µM

[Q] Return reported TGI; argument: C=C1C(=O)OC2C1CC(OC(C)=O)/C(C)=C/CCC1(C)OC21 (stereo not drawn)
[A] > 100 µM

[Q] Return reported TGI; argument: "CCOc1cc(NC(C)=O)ccc1C(=O)NNS(=O)(=O)c1ccc(NC(C)=O)cc1"
[A] > 100 µM

[Q] Return reported TGI; argument: "Cc1noc2c1-c1ccccc1C(c1ccc(Cl)cc1)=N[C@H]2CC(N)=O"
[A] > 100 µM

[Q] Return reported TGI; argument: "Cc1cc(C)nc(NC(P(=O)(O)O)P(=O)(O)O)n1"
[A] > 100 µM

====

test system: SNB-19 CNS; assay: NCI tumour cell line growth inhibition, 48 h; in the data active means GI50 below about 0.43 µM; inactive means the rest
Thanks in advance; please answer with one of these: active, inactive

[Q] For this compound, state the assay outcome: Cc1sc2c(c1C)C(c1ccc(Cl)cc1)=N[C@@H](CC(=O)Nc1ccc(OCCOCCOCCOCCNc3cccc4c3C(=O)N(C3CCC(=O)NC3=O)C4=O)cc1)c1nnc(C)n1-2 (stereo partly drawn)
[A] active

[Q] For this compound, state the assay outcome: "COc1cc2c3c(n(CCCN(CCO)CCO)c(=O)c2cc1OC)-c1cc2c(cc1C3=O)OCO2"
[A] inactive

[Q] For this compound, state the assay outcome: "O=C(Nc1ccc(Cl)cc1)Nc1nccs1"
[A] inactive

[Q] For this compound, state the assay outcome: "O=C(NNc1cnccn1)c1nc2cc(F)ccc2n2cccc12"
[A] inactive

[Q] For this compound, state the assay outcome: COc1ccc2c(c1)C(C)Cc1c(ncnc1-n1cnc3ccccc31)N2C (stereo not drawn)
[A] inactive

[Q] For this compound, state the assay outcome: "COc1ccc(-c2cc(-c3ccc(Nc4ccnc5cc(Cl)ccc45)cc3)nc(N3CCOCC3)n2)cc1"
[A] inactive

[Q] For this compound, state the assay outcome: O=C1/C(=C/N2N=C(c3ccc4ccccc4c3)CC2c2ccccc2O)SC(=S)N1c1cccnc1 (stereo not drawn)
[A] inactive

[Q] For this compound, state the assay outcome: "CN1C(NNC(=O)c2cccnc2)=NS(=O)(=O)c2cc(Cl)ccc21"
[A] inactive
